The entries below come with measured IC50 values attached.
assay_target: c-Met (Homo sapiens, UniProt P08581)
Construct: Kinases are expressed as either kinase domains or full length constructs; made in house
Sequence (P08581 25-1390): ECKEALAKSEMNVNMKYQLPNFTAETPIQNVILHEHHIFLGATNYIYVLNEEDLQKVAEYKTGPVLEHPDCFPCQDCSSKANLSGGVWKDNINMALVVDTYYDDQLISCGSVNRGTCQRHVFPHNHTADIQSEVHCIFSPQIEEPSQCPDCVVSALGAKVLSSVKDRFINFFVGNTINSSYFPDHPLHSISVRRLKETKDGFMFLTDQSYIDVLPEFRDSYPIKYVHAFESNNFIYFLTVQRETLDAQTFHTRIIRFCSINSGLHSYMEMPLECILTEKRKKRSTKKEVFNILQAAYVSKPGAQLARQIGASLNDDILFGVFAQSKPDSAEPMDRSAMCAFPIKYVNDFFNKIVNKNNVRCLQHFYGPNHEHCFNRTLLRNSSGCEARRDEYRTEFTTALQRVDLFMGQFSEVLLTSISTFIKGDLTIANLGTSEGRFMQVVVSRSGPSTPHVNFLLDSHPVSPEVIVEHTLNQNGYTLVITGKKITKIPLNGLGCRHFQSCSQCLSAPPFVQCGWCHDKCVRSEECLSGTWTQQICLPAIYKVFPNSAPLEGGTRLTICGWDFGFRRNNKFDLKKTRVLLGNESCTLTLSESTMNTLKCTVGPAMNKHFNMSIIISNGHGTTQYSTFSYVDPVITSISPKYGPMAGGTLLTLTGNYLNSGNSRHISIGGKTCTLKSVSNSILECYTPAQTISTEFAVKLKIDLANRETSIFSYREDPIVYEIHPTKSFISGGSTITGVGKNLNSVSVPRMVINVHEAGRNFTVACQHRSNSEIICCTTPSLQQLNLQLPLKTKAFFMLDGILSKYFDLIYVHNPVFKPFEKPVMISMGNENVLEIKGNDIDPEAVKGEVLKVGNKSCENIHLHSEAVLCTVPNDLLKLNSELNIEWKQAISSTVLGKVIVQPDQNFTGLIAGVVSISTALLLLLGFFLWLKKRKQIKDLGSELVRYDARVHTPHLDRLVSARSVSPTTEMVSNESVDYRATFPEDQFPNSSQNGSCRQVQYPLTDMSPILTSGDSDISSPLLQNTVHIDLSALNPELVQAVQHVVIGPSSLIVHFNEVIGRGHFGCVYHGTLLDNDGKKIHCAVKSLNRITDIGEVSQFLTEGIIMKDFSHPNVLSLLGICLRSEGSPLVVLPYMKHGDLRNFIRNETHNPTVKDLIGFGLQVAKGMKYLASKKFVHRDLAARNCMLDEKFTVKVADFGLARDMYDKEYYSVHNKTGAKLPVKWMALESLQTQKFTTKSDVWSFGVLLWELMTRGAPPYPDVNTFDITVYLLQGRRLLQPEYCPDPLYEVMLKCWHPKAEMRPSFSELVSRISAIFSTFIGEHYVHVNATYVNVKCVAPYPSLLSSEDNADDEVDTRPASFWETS
assay_comment: Kinase inhibition assay (33P transfer), c-Met
Assay type: biochemical
test_conditions: Table 2, kinase inhibition class; read-out: Met-1

Below are worked cases with known answers.
COc1cc(Nc2ncnc(-n3c(=O)sc4ccccc43)n2)cc(OC)c1OC [Compound 424] ... > 10.9 µM
Nc1nc2ccccc2n1-c1ncnc(N2C(=O)c3ccccc3C2=O)n1 [Compound 653] ... > 12.6 µM
COc1cc(Nc2ncnc(-n3c(NCc4ccncc4)nc4ccccc43)n2)cc(OC)c1OC [Compound 413] ... > 9.29 µM
COc1ccc(Nc2ncnc(NCCNC(C)=O)n2)cc1OC [Compound 784] ... > 13.5 µM
Nc1nc2ccccc2n1-c1ncnc(Nc2ccc(-c3ccccc3)cc2)n1 [Compound 480] ... 1.05 to 6.33 µM

Here is another molecule to look at.
Report IC50 for NC(=O)c1cccc(Nc2ncnc(-c3ccccc3)n2)c1 [Compound 151] please.
> 15.4 µM

###

assay_target: Hck-1 (Homo sapiens)
Sequence (P08631 whole entry): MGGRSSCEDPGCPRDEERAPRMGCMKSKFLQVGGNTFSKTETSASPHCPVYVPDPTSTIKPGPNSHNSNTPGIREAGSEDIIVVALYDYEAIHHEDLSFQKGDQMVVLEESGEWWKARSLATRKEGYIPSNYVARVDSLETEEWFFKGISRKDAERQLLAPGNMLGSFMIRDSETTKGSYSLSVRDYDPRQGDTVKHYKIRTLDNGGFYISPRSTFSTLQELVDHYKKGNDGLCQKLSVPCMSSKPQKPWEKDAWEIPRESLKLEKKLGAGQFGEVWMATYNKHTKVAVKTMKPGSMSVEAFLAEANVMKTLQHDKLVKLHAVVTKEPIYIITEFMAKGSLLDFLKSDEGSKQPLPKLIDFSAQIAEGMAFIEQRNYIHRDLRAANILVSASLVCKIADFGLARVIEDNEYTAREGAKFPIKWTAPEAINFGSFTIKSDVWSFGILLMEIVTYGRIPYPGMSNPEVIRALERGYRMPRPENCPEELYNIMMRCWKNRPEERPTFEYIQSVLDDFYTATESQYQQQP
pIC50: −log10 of the molar value.
reported_metric: pIC50

// below: answered molecules
COc1cc(Nc2ncnc(Nc3ccc(OCc4ccccc4)cc3)n2)cc(OC)c1 ... < 4.98
COc1cc(Nc2ncnc(-n3c(Nc4ccc5[nH]ccc5c4)nc4ccccc43)n2)cc(OC)c1OC ... < 5.05
COc1cc(Nc2ncnc(-n3ccc4ccc(Cl)cc43)n2)cc(OC)c1OC ... < 4.96

Which pIC50 is reported for this molecule? COc1cc(Nc2ncnc(Nc3cc(OC)c(OC)c(OC)c3)n2)cc(OC)n1
< 4.96

Which pIC50 value is on record for COc1cc(Nc2ncnc(Nc3nnc(-c4ccccc4)[nH]3)n2)cc(OC)c1OC ?
< 4.97

Tell me the measured pIC50 of NC(=O)c1ccc(Nc2ncnc(-c3cccnc3NCc3ccccc3)n2)cc1 , please.
< 4.95

Would you mind telling me what pIC50 value was observed for Cc1cccc(Nc2ncnc(Nc3ccc(O)cc3)n2)c1 ?
4.81 to 4.92

What value of pIC50 has been recorded for this entry: CCOc1ccc(Nc2ncnc(Nc3ccc(OCc4ccccc4)cc3)n2)cc1OCC
< 5.01

###

Reported pIC50 is given for each of the following compounds.
assay_target: Lck (Homo sapiens)
Construct: Kinases are expressed as either kinase domains or full length constructs; made in house
Sequence (P06239 whole entry, species assumed, the tested form may be a part): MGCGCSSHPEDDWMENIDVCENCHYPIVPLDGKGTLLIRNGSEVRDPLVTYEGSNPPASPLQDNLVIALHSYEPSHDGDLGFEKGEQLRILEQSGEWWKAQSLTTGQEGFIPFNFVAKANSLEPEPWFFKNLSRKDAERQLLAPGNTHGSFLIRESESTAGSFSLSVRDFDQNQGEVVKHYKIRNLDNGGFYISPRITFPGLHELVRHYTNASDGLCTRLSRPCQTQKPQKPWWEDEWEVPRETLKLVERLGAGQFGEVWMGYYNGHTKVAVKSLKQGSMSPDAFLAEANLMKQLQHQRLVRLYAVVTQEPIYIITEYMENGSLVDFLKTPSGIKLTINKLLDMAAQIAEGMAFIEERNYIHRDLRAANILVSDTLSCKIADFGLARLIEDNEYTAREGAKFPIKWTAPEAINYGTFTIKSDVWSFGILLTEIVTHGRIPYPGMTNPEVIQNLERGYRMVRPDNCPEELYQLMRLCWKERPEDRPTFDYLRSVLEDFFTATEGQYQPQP
assay_comment: Kinase inhibition assay (33P transfer), Lck
Assay type: biochemical
test_conditions: Table 3; read-out: Lck-1
pIC50: −log10 of the molar value.

Cc1ccc(Nc2ncnc(-n3cccc3)n2)cc1Cl [Compound 276] ... < 4.80
COc1cc(Nc2ncnc(-n3c(NCc4ccncc4)nc4ccccc43)n2)cc(OC)c1OC [Compound 413] ... < 5.03

Give its pIC50 value. Item: COc1cc(Nc2ncnc(-n3c(Nc4ccc(C)cc4)nc4ccccc43)n2)cc(OC)c1OC [Compound 385]
5.30 to 6.08

Request the reported pIC50 associated with COc1ccc(Nc2ncnc(Nc3ccc(OC)c(OC)c3)n2)cc1OC [Compound 63]
< 4.93

Fill blank: measured pIC50 of the compound COc1cc(Nc2ncnc(N)n2)cc(OC)c1OC [Compound 1024] is ____.
< 4.79

Given CNc1nc2ccccc2n1-c1ncnc(Nc2cc(OC)c(OC)c(OC)c2)n1 [Compound 417] , state its recorded pIC50.
> 6.01

Please look up its pIC50: NC(=O)c1ccc(Nc2ncnc(-c3ccccc3)n2)cc1 [Compound 1028]
< 4.81

###

Parameter: IC50. Scope: all listed entries.
assay_target: Itk (Homo sapiens, UniProt Q08881)
Construct: Kinases are expressed as either kinase domains or full length constructs; made in house
assay_comment: Kinase inhibition assay (33P transfer), Itk
Assay type: biochemical
test_conditions: Table 3, class symbols; read-out: Itk-1

Sample answers from the record:
COc1ccc(CNc2ncnc(Nc3cc(-c4ccco4)[nH]n3)n2)cc1OC ... 1.02 to 6.1 µM
CNC(=O)c1cccc(Nc2ncnc(Nc3cc(-c4ccco4)[nH]n3)n2)c1 ... 1.06 to 6.38 µM
COc1ccc(Nc2ncnc(Nc3ccc4c(c3)C(=O)OC4)n2)cc1OC ... 9.23 to 11.9 µM

Requested field: IC50. Item: COc1cc(Nc2ncnc(-c3cccnc3Nc3cccc(C(F)(F)F)c3)n2)cc(OC)c1OC
> 9.03 µM

GET /values?readout=IC50&item= FC(F)(F)Oc1cccc(Nc2ncnc(Nc3ccc4c(cnn4Cc4ccccc4)c3)n2)c1
> 9.43 µM

Return reported IC50; argument: O=S(=O)(O)c1cccc(Nc2ncnc(Nc3cc(-c4ccco4)[nH]n3)n2)c1
1 to 6.01 µM

Consider the compound COc1ccc2[nH]cc(CCNc3ncnc(Nc4ccc(OC)c(OC)c4)n3)c2c1 and give its measured IC50.
> 10.7 µM

Fill in: IC50 of c1ccc(Cn2ncc3cc(Nc4ncnc(Nc5ccc6ncsc6c5)n4)ccc32)cc1 is ___
0.888 to 5.33 µM

Bench note: what IC50 did COc1cc(C)c(Nc2ncnc(Nc3cc(-c4ccc(C)cc4)n[nH]3)n2)cc1OC show?
> 10.8 µM

Which IC50 is listed for COC(=O)c1ccc(-c2cc(Nc3ncnc(NCCN4CCOCC4)n3)[nH]n2)cc1 ?
> 10.6 µM

For the compound COc1cc(CNc2ncnc(Nc3cc(-c4ccco4)n[nH]3)n2)cc(OC)c1OC , what IC50 is on record?
> 10.6 µM

###

// IC50 lookup, one value per entry
assay_target: EPHB4 (Homo sapiens, UniProt P54760)
Sequence (P54760 16-987, species assumed): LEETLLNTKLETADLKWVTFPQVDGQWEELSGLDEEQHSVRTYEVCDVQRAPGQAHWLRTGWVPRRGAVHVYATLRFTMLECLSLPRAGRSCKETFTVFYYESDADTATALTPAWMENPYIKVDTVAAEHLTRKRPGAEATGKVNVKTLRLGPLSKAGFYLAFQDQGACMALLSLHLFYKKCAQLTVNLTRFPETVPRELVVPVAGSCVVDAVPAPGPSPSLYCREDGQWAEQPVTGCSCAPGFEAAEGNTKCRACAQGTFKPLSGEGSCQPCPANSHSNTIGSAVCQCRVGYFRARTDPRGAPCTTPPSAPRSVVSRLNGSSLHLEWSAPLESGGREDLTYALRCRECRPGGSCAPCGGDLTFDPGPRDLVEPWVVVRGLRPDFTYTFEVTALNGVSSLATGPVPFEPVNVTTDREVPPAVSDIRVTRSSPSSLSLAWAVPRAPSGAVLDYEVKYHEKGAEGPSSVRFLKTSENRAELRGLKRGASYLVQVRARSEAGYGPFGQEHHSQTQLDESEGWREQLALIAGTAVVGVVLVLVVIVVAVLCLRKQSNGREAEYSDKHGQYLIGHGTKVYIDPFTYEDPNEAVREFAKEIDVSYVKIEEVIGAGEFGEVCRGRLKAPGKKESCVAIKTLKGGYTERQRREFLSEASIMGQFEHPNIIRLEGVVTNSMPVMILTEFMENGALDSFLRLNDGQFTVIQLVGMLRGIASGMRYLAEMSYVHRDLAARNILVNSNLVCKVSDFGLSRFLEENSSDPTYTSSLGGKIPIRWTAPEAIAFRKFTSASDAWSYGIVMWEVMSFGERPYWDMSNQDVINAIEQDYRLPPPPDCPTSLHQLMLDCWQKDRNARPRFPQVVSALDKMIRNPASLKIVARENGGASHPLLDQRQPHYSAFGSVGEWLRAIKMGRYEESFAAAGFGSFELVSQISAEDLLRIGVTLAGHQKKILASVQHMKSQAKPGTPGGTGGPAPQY

COc1cc(Nc2ncnc(-n3c(Nc4ccc(C(C)C)cc4)nc4ccccc43)n2)cc(OC)c1OC ... > 8.8 µM

Entry COc1ccc(Nc2ncnc(Nc3ccc(N(C)C)cc3)n2)cc1OC has what IC50?
> 12.3 µM

Name the recorded IC50 for COC(=O)c1cc(Nc2ncnc(Nc3cc(-c4ccco4)n[nH]3)n2)cc(C(=O)OC)c1 .
0.919 to 5.51 µM

Fill in: IC50 of COc1cc(Nc2ncnc(Nc3ccc(OCc4ccccc4)cc3)n2)cc(OC)c1OC is ___
> 9.79 µM

Give its IC50 value. Item: COc1cc(Nc2ncnc(Nc3ccc(Cl)cc3F)n2)cc(OC)c1OC
0.986 to 5.91 µM

Fill in: IC50 of COc1cc(Nc2ncnc(Nc3cc(Cl)c(O)c(Cl)c3)n2)cc(OC)c1OC is ___
0.913 to 5.48 µM

# IC50 lookup, item COc1ccc(Nc2ncnc(Nc3ccc(Br)cc3F)n2)cc1OC
8.33 to 10.7 µM

Fill in: IC50 of COc1cc(Nc2ncnc(-n3c(Cl)nc4ccccc43)n2)cc(OC)c1OC is ___
> 10.9 µM

Look up IC50 for this compound: Cc1cccc(Nc2ncnc(Nc3cccc(Br)c3)n2)c1
> 12.6 µM

Suppose we examine the compound COc1cc(Nc2ncnc(Nc3ccc(F)cc3)n2)cc(OC)c1OC ; what IC50 value has been reported?
9.42 to 12.1 µM

IC50 lookup needed for COc1cc(Nc2ncnc(Nc3cccc(Br)c3)n2)cc(OC)c1OC , thanks.
< 0.925 µM

###

assay_target: Itk (Homo sapiens, UniProt Q08881)
Construct: Kinases are expressed as either kinase domains or full length constructs; made in house
Sequence (Q08881 1-620): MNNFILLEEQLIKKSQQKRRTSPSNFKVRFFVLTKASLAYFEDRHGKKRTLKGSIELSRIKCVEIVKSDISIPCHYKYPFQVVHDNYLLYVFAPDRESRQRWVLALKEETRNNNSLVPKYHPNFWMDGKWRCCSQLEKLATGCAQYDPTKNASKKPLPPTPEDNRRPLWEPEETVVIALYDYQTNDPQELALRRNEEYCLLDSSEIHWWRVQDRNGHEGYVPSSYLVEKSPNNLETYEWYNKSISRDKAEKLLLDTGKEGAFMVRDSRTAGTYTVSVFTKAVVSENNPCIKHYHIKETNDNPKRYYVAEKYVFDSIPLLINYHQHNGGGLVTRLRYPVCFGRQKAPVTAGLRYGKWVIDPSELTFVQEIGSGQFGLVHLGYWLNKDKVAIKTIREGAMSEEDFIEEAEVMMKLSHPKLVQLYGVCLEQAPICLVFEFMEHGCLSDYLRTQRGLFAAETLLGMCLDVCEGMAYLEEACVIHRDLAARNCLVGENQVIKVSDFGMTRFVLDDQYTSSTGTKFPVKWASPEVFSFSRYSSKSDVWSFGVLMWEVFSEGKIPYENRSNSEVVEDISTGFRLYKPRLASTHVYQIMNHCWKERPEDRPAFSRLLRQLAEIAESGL
assay_comment: Kinase inhibition assay (33P transfer), Itk
Assay type: biochemical
test_conditions: Table 3; read-out: Itk-1
pIC50: −log10 of the molar value.
// reported pIC50 for each item listed

Illustrative cases are given below, each with its answer.
Nc1nc2ccccc2n1-c1ncnc(Nc2cccc(-c3cnco3)c2)n1 [Compound 439] ... 5.19 to 5.97
COc1cc(Nc2ncnc(Nc3cccc(F)c3)n2)cc(OC)c1OC [Compound 304] ... 4.92 to 5.03
COc1ccc(Nc2ncnc(Nc3ccc(C)c(O)c3)n2)cc1OC [Compound 119] ... 4.90 to 5.00

Reported pIC50, compound Cc1cccc(Nc2ncnc(Nc3ccc4[nH]ncc4c3)n2)c1 [Compound 120] : ____
4.96 to 5.12

Given the entry COc1cc(Nc2ncnc(-c3ccnc(NCCCN)c3)n2)cc(OC)c1OC [Compound 45] , report its measured pIC50.
< 4.96

The values you see were collected from patent US7074789B2.
